Protocol Notes: Photochemical stability (SUNTEST CPS, colour difference before/after)
Assay type: physicochemical
Condition Parameters: compacted pure compound, SUNTEST CPS one hour, 765 watts/m^2; UV-unstable when ΔE >6
Assay Endpoint: Photochemical stability ΔE

- Test Smiles: "COc1ccc2c(ccc3oc4c(c32)C(=O)c2ccccc2C4=O)c1"
  Result: "ΔE = 0.81"
- Test Smiles: "CC(C)Oc1cc2c3c(oc2c2ccccc12)C(=O)c1ccccc1C3=O"
  Result: "ΔE = 0.81"
